Reference for the values: patent US12281122B1

System: SKBR3 (PI3Kα-Wild Type) cell line
Test: HTRF phospho-AKT(S473) cell assay in SKBR3 cells
Type: cell-based, human
Conditions: Homo sapiens, SK-BR-3; HTRF phospho-AKT(S473), SKBR3 (PI3Kα-Wild Type) cells, 2 hours compound incubation, PDGF-BB stimulated
Reported IC50 values for the following molecules.
Metric Name: IC50

                                   molecule  metric_name     result
0  Cc1cnc(N2C[C@@H]3[C@H](C2)[C@H]3c2nc3c([C@@H](C)Nc4ccc(Cl)nc4C(=O)NS(C)(=O)=O)cc(C)cc3c(=O)n2C)nc1 [Compound 810]         IC50     ≥ 5 µM
1  Cc1cc([C@@H](C)Nc2ccc(Cl)nc2C(=O)NS(C)(=O)=O)c2nc(-c3ccnc(O[C@@H]4CCNCC4(F)F)c3)n(C)c(=O)c2c1 [Compound 808]         IC50     ≥ 5 µM
2  Cc1cc([C@@H](C)Nc2ccc(Cl)nc2C(=O)NS(C)(=O)=O)c2nc(N3C[C@@H]4[C@H](C3)[C@H]4c3noc(C)n3)n(C)c(=O)c2c1 [Compound 465]         IC50  1 to 5 µM
3  Cc1cc([C@@H](C)Nc2ccc(Cl)nc2C(=O)NS(C)(=O)=O)c2nc(N3CCC(c4nn(C5COC5)cc4F)CC3)n(C)c(=O)c2c1 [Compound 759]         IC50  1 to 5 µM
4  CC(=O)N1CCN(c2cc(F)c(-c3nc4c([C@@H](C)Nc5ccc(Cl)nc5C(=O)NS(C)(=O)=O)cc(C)cc4c(=O)n3C)cc2F)CC1 [Compound 800]         IC50  1 to 5 µM
5  Cc1cc([C@@H](C)Nc2ccc(Cl)nc2C(=O)NS(C)(=O)=O)c2nc(N3CCN(c4nn(C)cc4F)CC3)n(C)c(=O)c2c1 [Compound 450]         IC50     ≥ 5 µM
